All figures here come from the NIST ThermoML archive (doi:10.1021/je050484k).

# EXPERIMENTAL_SETUP: 298.15 K; 101 kPa; Liquid
Numbers after ± are expanded uncertainties.
REPORTED_PROPERTY: mass density
Mention the unit after the number when you answer.

Examples with answers:
COMPOUND	mass density
COCCO [2-methoxyethan-1-ol]	960.02 ± 0.25 kg/m3
Cc1ccc(C)c(C)c1 [1,2,4-trimethylbenzene]	871.65 ± 0.48 kg/m3
COCCOC [1,2-dimethoxyethane]	861.38 ± 0.35 kg/m3

Please turn your attention to the following entry.
For Cc1cc(C)cc(C)c1 [1,3,5-trimethylbenzene] the compound record lists mass density as 861.05 ± 0.46 kg/m3
